Target: TRAF2 and NCK-interacting protein kinase (Homo sapiens, UniProt Q9UKE5)
Test: Competitive inhibition of recombinant TNIK (unknown origin) using LRRKtide as substrate after 1 hr in presence of 3 uM ATP
Sequence (Q9UKE5 whole entry): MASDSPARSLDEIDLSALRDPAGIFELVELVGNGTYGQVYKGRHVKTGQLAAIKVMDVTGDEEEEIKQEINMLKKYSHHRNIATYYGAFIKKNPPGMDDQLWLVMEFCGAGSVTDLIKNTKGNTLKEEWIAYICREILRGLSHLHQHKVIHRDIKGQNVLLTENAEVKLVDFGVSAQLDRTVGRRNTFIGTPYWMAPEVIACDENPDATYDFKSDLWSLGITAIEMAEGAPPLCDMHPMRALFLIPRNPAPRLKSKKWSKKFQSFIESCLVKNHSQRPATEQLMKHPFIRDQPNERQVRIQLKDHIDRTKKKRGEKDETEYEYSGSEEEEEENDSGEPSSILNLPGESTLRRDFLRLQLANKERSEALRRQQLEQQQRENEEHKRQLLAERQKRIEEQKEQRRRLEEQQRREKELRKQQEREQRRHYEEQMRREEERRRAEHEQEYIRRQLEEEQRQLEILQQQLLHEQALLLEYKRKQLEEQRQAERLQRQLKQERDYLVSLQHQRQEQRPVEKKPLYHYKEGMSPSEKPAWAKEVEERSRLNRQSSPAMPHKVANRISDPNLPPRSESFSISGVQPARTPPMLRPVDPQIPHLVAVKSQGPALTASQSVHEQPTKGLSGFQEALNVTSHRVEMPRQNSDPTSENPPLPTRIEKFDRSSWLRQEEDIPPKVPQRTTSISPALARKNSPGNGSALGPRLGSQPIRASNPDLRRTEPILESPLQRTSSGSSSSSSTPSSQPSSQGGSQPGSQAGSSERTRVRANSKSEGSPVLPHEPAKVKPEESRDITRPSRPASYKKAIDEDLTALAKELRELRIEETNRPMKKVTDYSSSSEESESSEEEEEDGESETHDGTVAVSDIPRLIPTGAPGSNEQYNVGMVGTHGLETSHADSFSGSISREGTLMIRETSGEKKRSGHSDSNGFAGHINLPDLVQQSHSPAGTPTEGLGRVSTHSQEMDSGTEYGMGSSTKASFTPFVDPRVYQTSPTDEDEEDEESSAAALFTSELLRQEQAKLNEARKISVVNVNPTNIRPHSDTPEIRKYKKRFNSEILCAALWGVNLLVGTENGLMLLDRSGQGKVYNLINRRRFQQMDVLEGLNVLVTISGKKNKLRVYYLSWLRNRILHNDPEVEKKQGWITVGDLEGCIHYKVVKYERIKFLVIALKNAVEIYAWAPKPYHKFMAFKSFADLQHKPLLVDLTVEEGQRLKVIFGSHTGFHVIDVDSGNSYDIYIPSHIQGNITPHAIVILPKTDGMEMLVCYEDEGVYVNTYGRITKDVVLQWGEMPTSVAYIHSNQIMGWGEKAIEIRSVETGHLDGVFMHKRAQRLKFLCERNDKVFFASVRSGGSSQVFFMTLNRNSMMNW
pIC50: −log10 of the molar value.
testReadout: pIC50

# smilesString, testReadout, assayValue
records = [
    ("CN1CCN(c2ccc(NC(=O)c3ccc(-c4cc(Cl)ccc4Cl)o3)cc2)CC1", "pIC50", 6.40),
]

###

Molecular target: TRAF2 and NCK-interacting protein kinase (Homo sapiens)
Assay: Inhibition of recombinant TNIK (unknown origin) using LRRKtide as substrate at 10 uM after 1 hr in presence of 30 uM ATP
Sequence (Q9UKE5 whole entry, looked up): as the sequence (Q9UKE5 whole entry) above
Entry flag: true if inhibition reaches 70%; false if it does not.

# smilesString, assignedClass
records = [
    ("CC[C@@H]1CCc2c(sc(NC(=O)Nc3ccccc3)c2C(N)=O)C1", "true"),
    ("CNS(=O)(=O)c1ccc(NC(=O)c2cc(C)c(-c3ccccc3)s2)cc1", "true"),
    ("Cc1ccc(-c2cc(C(=O)Nc3ccncc3)no2)cc1", "false"),
    ("O=C(NNC(=O)c1cc2ccccc2cc1O)NC1CCCCC1", "false"),
]

###

Biological target: UniProt Q9UKE5
Assay: Inhibition of recombinant TNIK (unknown origin) using LRRKtide as substrate at 10 uM after 1 hr in presence of 30 uM ATP
Reported inhibition values for the following molecules.
testReadout: inhibition (%)

# smilesString, target, unitSpec, assayValue
measured = [
    ("Cc1cc(C(=O)Nc2ccc(C(=O)N3CCOCC3)cc2)sc1-c1ccccc1", "UniProt Q9UKE5", "%", 60.4),
    ("O=C(Nc1cc(Cl)cc(Cl)c1)c1ccc(-c2ccc([N+](=O)[O-])cc2)o1", "UniProt Q9UKE5", "%", 8.9),
    ("CCC(=O)N1CCN(c2ccc(NC(=O)c3cc4ccccc4o3)cc2)CC1", "UniProt Q9UKE5", "%", 46),
    ("Cc1ccc(NC=C2C(=O)c3ccccc3C2=O)cc1C", "UniProt Q9UKE5", "%", 43),
    ("O=C(Nc1cccc(NC(=O)c2ccc(Cl)cc2Cl)c1)c1ccc(-c2cccc([N+](=O)[O-])c2)o1", "UniProt Q9UKE5", "%", 16.8),
    ("CN1CCN(c2ccc(NC(=O)c3ccc(-c4cc(Cl)ccc4Cl)o3)cc2)CC1", "UniProt Q9UKE5", "%", 94),
    ("CN1CCN(c2ccc(NC(=O)c3cccc(Cl)c3)cc2)CC1", "UniProt Q9UKE5", "%", 45),
    ("CN(C)c1ccc(NC(=O)c2cc3ccccc3o2)cc1", "UniProt Q9UKE5", "%", 39),
    ("Cc1cc(C(=O)Nc2cccc(S(=O)(=O)N3CCOCC3)c2)sc1-c1ccccc1", "UniProt Q9UKE5", "%", -4.9),
    ("Cc1c(Cl)cccc1-c1ccc(C(=O)Nc2ccc(S(N)(=O)=O)cc2)o1", "UniProt Q9UKE5", "%", 76.4),
]

###

System: NCI-H1703
Assay: Cytotoxicity against human NCI-H1703 cells transfected with lentiviral vector 7TFP assessed as cell viability at 10 uM after 72 hrs by ATPlite assay
Format: cell-based
Settings: nci-h1703, 72 h
testReadout: Activity

# smilesString, testReadout, assayValue
records = [
    ("CN1CCN(c2ccc(NC(=O)c3ccc(-c4cc(Cl)ccc4Cl)o3)cc2)CC1", "Activity", "Non-toxic"),
    ("Cc1c(Cl)cccc1-c1ccc(C(=O)Nc2ccc(S(N)(=O)=O)cc2)o1", "Activity", "Non-toxic"),
    ("CN1CCN(c2ccc3nc(-c4c(N)c5c(F)cccc5[nH]c4=O)[nH]c3c2)CC1", "Activity", "Toxic"),
    ("O=C1[C@H](Cc2ccc(O)cc2)N2C(=O)CCN(C(=O)NCc3ccccc3)[C@H]2CN1Cc1cccc2ccccc12", "Activity", "Non-toxic"),
]
